The values you see were collected from ChEMBL document CHEMBL6092145.

Hi! I'm sharing some IC50 results obtained with Tyrosine-protein kinase Blk (Homo sapiens).
Sequence (P51451 whole entry): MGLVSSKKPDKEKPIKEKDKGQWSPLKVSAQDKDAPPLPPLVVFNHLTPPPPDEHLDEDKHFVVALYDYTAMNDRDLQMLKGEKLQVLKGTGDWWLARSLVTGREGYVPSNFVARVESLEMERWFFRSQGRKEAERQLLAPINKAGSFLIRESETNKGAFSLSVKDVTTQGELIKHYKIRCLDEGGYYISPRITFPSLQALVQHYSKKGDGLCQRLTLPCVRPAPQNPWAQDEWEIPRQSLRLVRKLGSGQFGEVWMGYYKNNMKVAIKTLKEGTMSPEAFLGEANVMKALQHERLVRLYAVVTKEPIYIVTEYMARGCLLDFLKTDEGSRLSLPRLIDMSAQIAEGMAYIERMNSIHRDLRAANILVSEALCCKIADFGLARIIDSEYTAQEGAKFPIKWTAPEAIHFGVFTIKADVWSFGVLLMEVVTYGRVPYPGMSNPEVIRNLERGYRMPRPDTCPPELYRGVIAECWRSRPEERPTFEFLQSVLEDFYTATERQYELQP

Query block: Which value of IC50 has been reported for CN(C)CCSSCCC(=O)Nc1cc(-c2cccs2)[nH]n1 in the records?
Result block: > 10 µM

Query block: Could you share which IC50 value was measured for CN(C)CCSSCCNC(=O)C1CCN(C(=O)CSc2ccc(Cl)cc2)CC1 ?
Result block: > 10 µM

---

experimental target: Tyrosine-protein kinase Lck (Homo sapiens)
Sequence (P06239 whole entry): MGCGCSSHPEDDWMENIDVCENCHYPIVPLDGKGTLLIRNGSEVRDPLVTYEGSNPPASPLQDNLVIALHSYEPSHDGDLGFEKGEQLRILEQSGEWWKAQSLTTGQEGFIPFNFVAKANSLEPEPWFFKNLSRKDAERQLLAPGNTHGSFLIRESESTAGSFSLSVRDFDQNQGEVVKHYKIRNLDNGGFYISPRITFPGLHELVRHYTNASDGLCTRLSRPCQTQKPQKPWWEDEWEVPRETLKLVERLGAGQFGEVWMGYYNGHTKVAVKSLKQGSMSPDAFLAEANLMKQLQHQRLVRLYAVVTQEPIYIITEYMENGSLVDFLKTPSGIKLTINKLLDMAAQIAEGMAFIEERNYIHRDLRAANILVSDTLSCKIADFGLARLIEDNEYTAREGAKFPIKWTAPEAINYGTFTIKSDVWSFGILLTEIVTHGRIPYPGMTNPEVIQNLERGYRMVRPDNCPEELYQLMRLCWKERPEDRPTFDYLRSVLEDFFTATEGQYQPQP
measured quantity: IC50 (nM)
Please give a number only; it is taken to be in nM.

Query block: Which IC50 value is on record for Nc1ncnc2c1c(-c1ccc(Oc3ccccc3)cc1)nn2C1CCCC1 ?
Result block: 4.6

---

measured quantity: pIC50
pIC50 is defined as minus the log10 of a concentration measured in mol/L.

Query block: Reported pIC50 for Tyrosine-protein kinase BTK (Homo sapiens, UniProt Q06187), given C=CC(=O)NC1Cn2c(c(-c3ccc(Oc4ccccc4)cc3)c3c(N)ncnc32)C1=C (stereo unspecified) ?
Result block: 9.40
